# System under test: VBC / SMARCA2^BD ternary complex (Homo sapiens, UniProt P40337+P51531)
# Construct: VHL (54-213), ElonginB (17-112) ElonginC (1-104); SMARCA2^BD 1373–1511 ∆1400–1417; His6 (N, cleaved yes); made in house
# Sequence (P40337 54-213): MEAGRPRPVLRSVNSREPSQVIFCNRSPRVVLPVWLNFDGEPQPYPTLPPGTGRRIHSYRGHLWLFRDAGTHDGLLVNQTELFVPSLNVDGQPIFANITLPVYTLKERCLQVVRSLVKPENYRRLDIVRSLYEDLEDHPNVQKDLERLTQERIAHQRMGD
# Sequence (P51531 other isoform, or with tags, fused parts or gaps): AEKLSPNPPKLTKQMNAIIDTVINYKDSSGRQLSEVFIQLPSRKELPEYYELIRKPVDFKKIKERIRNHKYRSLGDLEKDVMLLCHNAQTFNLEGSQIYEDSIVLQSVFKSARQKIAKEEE
# Sequence (Q15370 1-104, further chain): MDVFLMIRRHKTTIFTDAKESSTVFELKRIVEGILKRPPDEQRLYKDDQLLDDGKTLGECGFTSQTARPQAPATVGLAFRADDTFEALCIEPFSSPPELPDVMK
# Sequence (Q15369 17-112, further chain): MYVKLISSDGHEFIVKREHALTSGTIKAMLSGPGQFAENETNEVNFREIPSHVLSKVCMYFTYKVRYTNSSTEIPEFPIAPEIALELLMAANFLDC
# Protocol text: SPR ternary complex binding, VBC surface with preformed PROTAC/SMARCA2 bromodomain complex
Measure name: α (cooperativity, KLP/KLPT)

Some compounds with known α (cooperativity, KLP/KLPT) results, for comparison:
Compound	α (cooperativity, KLP/KLPT)
Cc1ncsc1-c1ccc([C@H](C)NC(=O)[C@@H]2C[C@@H](O)CN2C(=O)[C@@H](NC(=O)CN2CCN(c3cc(-c4ccccc4O)nnc3N)CC2)C(C)(C)C)cc1 [Compound 6, reference compound]	2
Cc1ncsc1-c1ccc([C@H](C)NC(=O)[C@@H]2C[C@@H](O)CN2C(=O)[C@@H](NC(=O)CCc2ccnc(N3CCN(c4cc(-c5ccccc5O)nnc4N)CC3)c2)C(C)(C)C)cc1 [Compound 8]	0.26

A = Cc1ncsc1-c1ccc([C@H](C)NC(=O)[C@@H]2C[C@@H](O)CN2C(=O)[C@@H](NC(=O)c2ccnc(N3CCN(c4cc(-c5ccccc5O)nnc4N)CC3)c2)C(C)(C)C)cc1 [Compound 1]
B = Cc1ncsc1-c1ccc([C@H](C)NC(=O)[C@@H]2C[C@@H](O)CN2C(=O)[C@@H](NC(=O)c2ccnc(N3CCN(c4cnnc(-c5ccccc5O)c4)CC3)c2)C(C)(C)C)cc1 [Compound 10]
C = Cc1ncsc1-c1ccc([C@H](C)NC(=O)[C@@H]2C[C@@H](O)CN2C(=O)[C@@H](NC(=O)c2csc(N3CCN(c4cc(-c5ccccc5O)nnc4N)CC3)n2)C(C)(C)C)cc1 [Compound 5]
D = Cc1ncsc1-c1ccc([C@H](C)NC(=O)[C@@H]2C[C@@H](O)CN2C(=O)[C@@H](NC(=O)Cc2ccnc(N3CCN(c4cc(-c5ccccc5O)nnc4N)CC3)c2)C(C)(C)C)cc1 [Compound 7]
E = Cc1ncsc1-c1ccc([C@H](C)NC(=O)[C@@H]2C[C@@H](O)CN2C(=O)[C@@H](NC(=O)c2cccc(N3CCN(c4cc(-c5ccccc5O)nnc4N)CC3)c2)C(C)(C)C)cc1 [Compound 4]
Arrange by α (cooperativity, KLP/KLPT), high to low. # the answer lists labels in the order requested
A, E, C, B, D
(A: 12.8, E: 2.6, C: 1.8, B: 0.24, D: 0.11)

---

# System under test: BRD4 (Homo sapiens, UniProt O60885)
# Construct: endogenous in cells; host or cells: A375
# Protocol text: BRD4 degradation, MSD assay, dose response
# Assay type: cell-based
# Set-up: unit not given beside the values
# Condition notes: BRD4 MSD assay, A375 cells, 4 h
Measure name: AUC (area under the dose-response curve)

Study these solved cases before continuing.
Molecule	Recorded number
Cc1ncsc1-c1ccc(CNC(=O)[C@@H]2C[C@@H](O)CN2C(=O)[C@@H](NC(=O)COCCOCCOCCOCCOCc2cn(CCNC(=O)C[C@@H]3N=C(c4ccc(Cl)cc4)c4c(sc(C)c4C)-n4c(C)nnc43)nn2)C(C)(C)C)cc1 [Compound 16]	900
Cc1ncsc1-c1ccc(CNC(=O)[C@@H]2C[C@@H](O)CN2C(=O)[C@@H](NC(=O)COCCOCc2cn(CCNC(=O)C[C@@H]3N=C(c4ccc(Cl)cc4)c4c(sc(C)c4C)-n4c(C)nnc43)nn2)C(C)(C)C)cc1 [Compound 13]	309

A = Cc1ncsc1-c1ccc(CNC(=O)[C@@H]2C[C@@H](O)CN2C(=O)[C@@H](NC(=O)COCCOCCOCCOCc2cn(CCNC(=O)C[C@@H]3N=C(c4ccc(Cl)cc4)c4c(sc(C)c4C)-n4c(C)nnc43)nn2)C(C)(C)C)cc1 [Compound 15]
B = Cc1ncsc1-c1ccc(CNC(=O)[C@@H]2C[C@@H](O)CN2C(=O)[C@@H](NC(=O)COCc2cn(CCNC(=O)C[C@@H]3N=C(c4ccc(Cl)cc4)c4c(sc(C)c4C)-n4c(C)nnc43)nn2)C(C)(C)C)cc1 [Compound 12]
C = Cc1ncsc1-c1ccc(CNC(=O)[C@@H]2C[C@@H](O)CN2C(=O)[C@@H](NC(=O)COCCOCCOCc2cn(CCNC(=O)C[C@@H]3N=C(c4ccc(Cl)cc4)c4c(sc(C)c4C)-n4c(C)nnc43)nn2)C(C)(C)C)cc1 [Compound 14]
Rank the 3 molecules: largest AUC (area under the dose-response curve) first, smallest last. Order the labels as requested and list them.
A, C, B
